Data provenance: PubChem BioAssay

So I've got a bunch of compounds here, and I need their growth inhibition values.
# EXPERIMENT: inhibition of 3D7 malaria parasite growth – strain 3D7 (AID 2306);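 note: 0% = DMSO wells and 100% = chloroquine plus artemisinin control wells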
# MEASUREMENT_CONTEXT: P. falciparum 3D7 erythrocytic growth, LDH absorbance, 72 h; at 2 µM; stronger effect = higher value
Quick note: give the figure in %, leave out the unit.

Give the reported growth inhibition for this compound. CCCNCc1ccc(-c2ccc(CN(Cc3ccc4c(c3)OCO4)C(=O)[C@H]3CCCO3)cc2)nc1
90

Could you please provide reported growth inhibition for NC(=NCCCCC1CCCCC1)c1cccc(C(N)=NCCCCC2CCCCC2)n1 ? Thanks!
100

Give the reported value of growth inhibition for this record: Cc1ccc(F)c(OCC2CCCN(c3ccc(C(=O)NC4CC4)cn3)C2)c1 (stereo not given)
96

For Cc1ccc2c(c1)c(-c1ccccc1)c(-c1ccccc1)n2CC(O)CN1CCN(CC=Cc2ccccc2)CC1 (stereo not given) , write its growth inhibition.
98

Consider the compound O=C(Nc1ccccc1O)C1CCN(c2ncnc3cc(-c4ccc(F)cc4)sc23)CC1 . State its measured growth inhibition.
97

---

# ASSAYED_TARGET: Plasmodium falciparum protein kinase 6 (PK6, PF3D7_1337100) (UniProt Q8IDW1)
# EXPERIMENT: PfPK6 kinase inhibitors, biochemical, TCAMS library (AID 1159586)
# MEASUREMENT_CONTEXT: recombinant PfPK6, Kinase-Glo ATP depletion luminescence
Entries with a potency or affinity are not part of this list. The source made the active and inactive calls. No rule for the calls is given here.
ATTRIBUTE_MEASURED: outcome

Past entries and their recorded results:
NC(=O)C1CCN(Cc2cccc(-c3ccc(-c4nc5ccc(C(F)(F)F)cc5[nH]4)cc3)c2)CC1: inactive
Clc1ccc2c(NCCCCCCCCNc3ccnc4cc(Cl)ccc34)ccnc2c1: inactive
CCCc1cc(NC2CCN(C)CC2)nc(Nc2cccc(OC)c2)n1: inactive
CCN(CC)CCN(Cc1ccc(-c2ccc(C(F)(F)F)cc2)cc1)C(=O)Cn1c(CCc2cc(F)c(F)c(F)c2)nc(=O)c2ccccc21: inactive
C=CCC(CC=C)N1C(=O)C(c2ccccc2)(c2ccccc2)N=C1N: inactive

Identify outcome associated with the compound C[C@@H](COc1ccc(-c2ccccc2)cc1)CON1C(N)=NC(N)=NC1(C)C
inactive

Identify outcome associated with the compound Cc1cc(C2CCN(CCCCNC(=O)c3ccc(-c4ccc(C(F)(F)F)cc4)cc3)CC2)c(C)cc1OCCOC1CCCCO1 (centres undefined)
inactive

Please indicate outcome recorded for CN(C)CCc1coc2ccc(C(=O)Nc3ccc(-c4ccc(O)cc4)cc3)cc12
inactive

Tell me outcome reported for Cc1noc(C)c1-c1cccc(CNCc2cccc(-c3ccc(-c4nc5ccccc5[nH]4)s3)c2)c1
inactive

Look up and report measured outcome for this entry: COc1ccc2nc(C)cc(Nc3ccc(Oc4ccc5ccccc5c4)c(Cl)c3)c2c1
inactive

Fill in reported outcome for this entry: CC(C)C(NC(=O)c1c(F)cccc1F)C(=O)Nc1ccc(Cc2nc3ccccc3s2)cc1 (centres undefined)
inactive

Quick one: give measured outcome for O=C(Nc1ccc(Cn2ncc(N3CCCNCC3)c(Cl)c2=O)cc1)Nc1cc(Cl)cc(Cl)c1
inactive

Read the entry COc1ccc2nccc(NC(=O)C3(O)CCC(NCc4ccc5c(c4)NCCS5)CC3)c2n1 (centres undefined) and write its reported outcome.
inactive

For Clc1ccc(OCCC2CCN(CCCCCCN3CCCCC3)CC2)cc1Cl , write its outcome.
inactive

Give outcome for the following compound: COc1ccc(C=NNc2cc(C)nc3ccccc23)cc1OC
inactive
